Every entry's value here was drawn from PubChem BioAssay AID2060895.

# Test system: PDC 899932-113-R3-J6 complex spheroid viability;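 also: spheroids exposed to agents for seven days before readout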
# experiment.summary: Anticancer human tumor 899932-113-R3-J6-PDC patient-derived melanoma cell line growth inhibition [RAS]; active = viability on the fitted dose curve at most 10% of control; inactive = the rest
# run.conditions: second compound 0.03 µM; first compound 1 µM
Would you mind answering with one of these outcomes? active, inactive

[in] Lab log entry: CC(C)NCC(C(=O)N1CCN(c2ncnc3c2C(C)CC3O)CC1)c1ccc(Cl)cc1 (stereo not given) + CCn1c(-c2cc(N3CCN(C)CC3)cnc2C(C)OC)c2c3cc(ccc31)-c1csc(n1)CC(NC(=O)C1CC1C)C(=O)N1CCCC(N1)C(=O)OCC(C)(C)C2 — outcome as called in the assay?
[out] active

[in] Answer briefly: the call reported for Nc1ccn(C2OC(CO)C(O)C2(F)F)c(=O)n1 (stereo not given) + CCn1c(-c2cccnc2C(C)OC)c2c3cc(ccc31)N1CCOC(CC(NC(=O)C(C(C)C)N(C)C(=O)C3(F)CCN(C(=O)C#CC(C)(C)N(C)C)CC3)C(=O)N3CCCC(N3)C(=O)OCC(C)(C)C2)C1 in this assay.
[out] inactive

[in] Recorded test call requested for CC1(O)CCCC1n1c(=O)c(C(F)F)cc2cnc(NC3CCN(S(C)(=O)=O)CC3)nc21 (stereo not given) + CCn1c(-c2cccnc2C(C)OC)c2c3cc(ccc31)N1CCOC(CC(NC(=O)C(C(C)C)N(C)C(=O)C3(F)CCN(C(=O)C#CC(C)(C)N(C)C)CC3)C(=O)N3CCCC(N3)C(=O)OCC(C)(C)C2)C1
[out] inactive

[in] Returns: the outcome recorded for O=C(c1ccc(F)c(F)c1Nc1ccc(I)cc1F)N1CC(O)([C@@H]2CCCCN2)C1 + CCn1c(-c2cc(N3CCN(C)CC3)cnc2C(C)OC)c2c3cc(ccc31)-c1csc(n1)CC(NC(=O)C1CC1C)C(=O)N1CCCC(N1)C(=O)OCC(C)(C)C2 in this assay.
[out] active

[in] Identify the outcome logged in this assay for the compound shown: NC1c2ccccc2OC12CCN(c1cnc3c(N4CCCc5ncccc54)n[nH]c3n1)CC2 (stereo not given) + CCn1c(-c2cccnc2C(C)OC)c2c3cc(ccc31)N1CCOC(CC(NC(=O)C(C(C)C)N(C)C(=O)C3(F)CCN(C(=O)C#CC(C)(C)N(C)C)CC3)C(=O)N3CCCC(N3)C(=O)OCC(C)(C)C2)C1
[out] inactive

[in] I'd appreciate the recorded outcome for C=CC(=O)N1CCN(c2nc(OCC3CCCN3C)nc3c(F)c(-c4nc(N)cc(C)c4C(F)(F)F)c(Cl)cc23)C(C)C1 (stereo not given) + CCn1c(-c2cccnc2C(C)OC)c2c3cc(ccc31)N1CCOC(CC(NC(=O)C(C(C)C)N(C)C(=O)C3(F)CCN(C(=O)C#CC(C)(C)N(C)C)CC3)C(=O)N3CCCC(N3)C(=O)OCC(C)(C)C2)C1 from this test.
[out] inactive

[in] What was the test verdict on C=CC(=O)Nc1cc(Nc2nccc(-c3cn(C)c4ccccc34)n2)c(OC)cc1N(C)CCN(C)C + CCn1c(-c2cc(N3CCN(C)CC3)cnc2C(C)OC)c2c3cc(ccc31)-c1csc(n1)CC(NC(=O)C1CC1C)C(=O)N1CCCC(N1)C(=O)OCC(C)(C)C2 ?
[out] active

[in] Any idea what this test logged for CCC(CC)c1cc(NC2CCC(N)C2)n2nccc2n1 (stereo not given) + CCn1c(-c2cccnc2C(C)OC)c2c3cc(ccc31)N1CCOC(CC(NC(=O)C(C(C)C)N(C)C(=O)C3(F)CCN(C(=O)C#CC(C)(C)N(C)C)CC3)C(=O)N3CCCC(N3)C(=O)OCC(C)(C)C2)C1 ?
[out] inactive

[in] What outcome does the record of this test show for C[C@@H](NC(=O)c1ncnc(N)c1Cl)c1ncc(C(=O)Nc2cc(C(F)(F)F)c(Cl)cn2)s1 + CCn1c(-c2cc(N3CCN(C)CC3)cnc2C(C)OC)c2c3cc(ccc31)-c1csc(n1)CC(NC(=O)C1CC1C)C(=O)N1CCCC(N1)C(=O)OCC(C)(C)C2 ?
[out] active

[in] Hello, I am checking results. What call was entered for NC1c2ccccc2OC12CCN(c1cnc3c(N4CCCc5ncccc54)n[nH]c3n1)CC2 (stereo not given) + CCn1c(-c2cc(N3CCN(C)CC3)cnc2C(C)OC)c2c3cc(ccc31)-c1csc(n1)CC(NC(=O)C1CC1C)C(=O)N1CCCC(N1)C(=O)OCC(C)(C)C2 ?
[out] active
